molecular target: human adenosine A2A receptor (Homo sapiens); test: Measurement of antagonistic action for human adenosine A2A receptor (inhibition of NECA-induced cAMP production in transfected CHO-K1 cells); details: human adenosine A2A receptor-expressed CHO-K1 cells, Ki from IC50 and Km for NECA
REPORTED_METRIC: Ki (nM)

{"columns": ["SMILES_CODE", "READOUT_UNITS", "ASSAY_VALUE"],
 "data": [
  ["NC(=O)c1oc2cc(F)ccc2c1NC(=O)c1ccc2c(c1)OCO2", "nM", 6.5]
]}

P = CC(C)(C)OC(=O)N1CCN(Cc2ccc(C(=O)Nc3c(C(N)=O)oc4c(F)cc(F)cc34)o2)CC1
Q = NC(=O)c1oc2c(Cl)cc(F)cc2c1NC(=O)C1CC1
R = COc1ccc2c(NC(=O)c3ccc(F)cc3)c(C(N)=O)oc2c1
Query string: Ranking field: Ki; order: falling. Labels, ranked as asked.
Result string: Q, P, R
(Q: 9.8 nM, P: 2 nM, R: 0.9 nM)

----------
biological target: human adenosine A2A receptor (Homo sapiens, UniProt P29274); test: Measurement of antagonistic action for human adenosine A2A receptor (inhibition of NECA-induced cAMP production in transfected CHO-K1 cells); details: human adenosine A2A receptor-expressed CHO-K1 cells, Ki from IC50 and Km for NECA
Sequence (P29274 whole entry): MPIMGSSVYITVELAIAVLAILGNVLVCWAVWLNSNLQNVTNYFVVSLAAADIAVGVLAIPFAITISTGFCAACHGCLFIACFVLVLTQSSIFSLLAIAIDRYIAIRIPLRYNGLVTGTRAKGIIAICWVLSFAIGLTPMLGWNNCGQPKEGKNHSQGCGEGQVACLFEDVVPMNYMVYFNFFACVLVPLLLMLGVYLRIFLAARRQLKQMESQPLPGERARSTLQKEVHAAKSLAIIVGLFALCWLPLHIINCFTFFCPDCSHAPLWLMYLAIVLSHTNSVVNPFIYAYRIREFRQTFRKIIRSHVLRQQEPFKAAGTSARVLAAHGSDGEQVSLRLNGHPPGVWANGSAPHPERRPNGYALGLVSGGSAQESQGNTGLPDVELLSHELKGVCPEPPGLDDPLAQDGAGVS
REPORTED_METRIC: Ki (nM)

Worked cases, Ki given:
{"columns": ["SMILES_CODE", "ASSAY_VALUE"],
 "data": [
  ["NC(=O)c1oc2ccc(Cl)cc2c1NC(=O)c1ccco1", 9.3],
  ["NC(=O)c1oc2ccc(F)cc2c1NC(=O)COCc1ccccc1", 2.2]
]}

a = COc1ccc(C(=O)Nc2c(C(N)=O)oc3c(OC)cc(F)cc23)cc1
b = NC(=O)c1oc2c(F)cc(F)cc2c1NC(=O)C1CC1
c = NC(=O)c1oc2c(F)cc(F)cc2c1NC(=O)Cc1ccccc1
Query string: I would appreciate it if you could sort these 3 compounds by Ki, starting from the smallest number. Labels, ranked as asked.
Result string: a, c, b

----------
target: human adenosine A2A receptor (Homo sapiens); assay: Measurement of antagonistic action for human adenosine A2A receptor (inhibition of NECA-induced cAMP production in transfected CHO-K1 cells); conditions: human adenosine A2A receptor-expressed CHO-K1 cells, Ki from IC50 and Km for NECA
pKi: −log10 of the molar value.
REPORTED_METRIC: pKi

{"columns": ["COMPOUND", "TESTED_ON", "pKi"],
 "data": [
  ["NC(=O)c1oc2cc(Cl)ccc2c1NC(=O)C1CC1 [Compound 1-153]", "human adenosine A2A receptor (Homo sapiens)", 8.04],
  ["COc1ccc2c(NC(=O)c3ccc(CSc4nccn4C)cc3)c(C(N)=O)oc2c1 [Compound 2-7]", "human adenosine A2A receptor (Homo sapiens)", 8.07],
  ["NC(=O)c1oc2ccc(F)cc2c1NC(=O)C1CC1 [Compound 1-1]", "human adenosine A2A receptor (Homo sapiens)", 8.07]
]}

A = COCC(=O)Nc1c(C(N)=O)oc2cc(OC)ccc12 [Compound 1-141]
B = CCc1ccc(C(=O)Nc2c(C(N)=O)oc3c(F)cc(F)cc23)o1 [Compound 1-125]
Query string: Quick check, higher pKi between A and B ? Identify your pick by its label.
Result string: B
(B: 8.92, A: 8.03)

----------
target: human adenosine A2A receptor (Homo sapiens); experiment: Measurement of antagonistic action for human adenosine A2A receptor (inhibition of NECA-induced cAMP production in transfected CHO-K1 cells); conditions: human adenosine A2A receptor-expressed CHO-K1 cells, Ki from IC50 and Km for NECA
REPORTED_METRIC: Ki (nM)

{"columns": ["MOLECULE", "READOUT_UNITS", "Ki"],
 "data": [
  ["NC(=O)c1oc2cc(F)ccc2c1NC(=O)c1ccc(Oc2ccccc2)nc1", "nM", 4.5]
]}

I = COc1ccc2c(NC(=O)c3cccc(CN4CCN(c5ccccc5)CC4)c3)c(C(N)=O)oc2c1
II = CC(O)c1ccc(C(=O)Nc2c(C(N)=O)oc3ccc(F)cc23)o1 (stereo not shown)
Query string: Which value of Ki is smaller, the one for I or the one for II ? Identify your pick by its label.
Result string: II
(II: 1.1 nM, I: 8 nM)

----------
target: human adenosine A2A receptor (Homo sapiens); test: Measurement of antagonistic action for human adenosine A2A receptor (inhibition of NECA-induced cAMP production in transfected CHO-K1 cells); details: human adenosine A2A receptor-expressed CHO-K1 cells, Ki from IC50 and Km for NECA
pKi: −log10 of the molar value.
REPORTED_METRIC: pKi

Worked cases, pKi given:
{"columns": ["SMILES_CODE", "pKi"],
 "data": [
  ["COc1cc(F)cc2c(NC(=O)C3CC3)c(C(N)=O)oc12", 8.48],
  ["NC(=O)c1oc2c(F)cc(F)cc2c1NC(=O)c1ccco1", 8.57],
  ["CN1CCN(C(=O)c2cccc(C(=O)Nc3c(C(N)=O)oc4c(F)cc(F)cc34)c2)CC1", 9.30],
  ["NC(=O)c1oc2c(F)cc(F)cc2c1NC(=O)c1ccc(CN2CCN(Cc3ccccc3)CC2)o1", 8.80],
  ["NC(=O)c1oc2c(F)cc(F)cc2c1NC(=O)C1CCC1", 8.15],
  ["NC(=O)c1oc2c(F)cc(F)cc2c1NC(=O)c1ccc(CN2CCN(Cc3ccc4c(c3)OCO4)CC2)o1", 8.70],
  ["NC(=O)c1oc2ccc(F)cc2c1NC(=O)COc1ccc(Cl)cc1", 8.57],
  ["COc1ccc2c(NC(=O)c3ccc(-c4ccccc4)o3)c(C(N)=O)oc2c1", 8.49],
  ["NC(=O)c1oc2ccc(Cl)cc2c1NC(=O)C1CC1", 8.39],
  ["Cc1ccc(C(=O)Nc2c(C(N)=O)oc3c(F)cc(F)cc23)o1", 8.72]
]}

P = Cc1cccc(C(=O)Nc2c(C(N)=O)oc3ccc(F)cc23)c1
Q = CCc1ccc(C(=O)Nc2c(C(N)=O)oc3ccc(F)cc23)o1
Query string: Which value of pKi is smaller, the one for P or the one for Q ? Identify your pick by its label.
Result string: P
(P: 8.19, Q: 9.10)
